Test: Selectivity index, ratio of CC50 for human THP-1 cells to EC50 for bloodstream form Trypanosoma brucei
Assay type: toxicity
Conditions: read-out: Ratio CC50/EC50
Measured selectivity ratio, listed per entry.
Property label: selectivity ratio

| Compound | Bound type | Result value |
| --- | --- | --- |
| Nc1nc(N)c(C(C[N+](=O)[O-])c2cccc(Br)c2)c(N)n1 (stereo not given) | = | 118 |
| Nc1nc(N)c(C(C[N+](=O)[O-])c2cccc3c2OCO3)c(N)n1 (stereo not given) | = | 10 |
| Nc1nc(N)c(C(C[N+](=O)[O-])c2ccccc2OCc2cccc(Cl)c2)c(N)n1 (stereo not given) | = | 31 |
| Nc1nc(N)c(C(C[N+](=O)[O-])c2ccc(Cl)cc2)c(N)n1 (stereo not given) | = | 19 |
| COc1ccc(C(C[N+](=O)[O-])c2c(N)nc(N)nc2N)cc1OC (stereo not given) | = | 11 |
| Nc1nc(N)c(C(C[N+](=O)[O-])c2ccc(Br)cc2)c(N)n1 (stereo not given) | = | 16 |
| Nc1nc(N)c(C(C[N+](=O)[O-])c2ccc(OCc3ccc(Cl)c(Cl)c3)cc2)c(N)n1 (stereo not given) | = | 147 |
| Nc1nc(N)c(C(C[N+](=O)[O-])c2ccc3c(c2)OCO3)c(N)n1 (stereo not given) | = | 50 |
| Nc1nc(N)c(C(C[N+](=O)[O-])c2ccco2)c(N)n1 (stereo not given) | = | 10 |
| Nc1nc(N)c(C(C[N+](=O)[O-])c2ccccc2OCc2ccccc2)c(N)n1 (stereo not given) | > | 167 |
| COc1cccc(OC)c1C(C[N+](=O)[O-])c1c(N)nc(N)nc1N (stereo not given) | = | 7 |
| Nc1nc(N)c(C(C[N+](=O)[O-])c2cccc([N+](=O)[O-])c2)c(N)n1 (stereo not given) | = | 42 |
| Nc1nc(N)c(C(C[N+](=O)[O-])c2ccc(Cl)c(Cl)c2)c(N)n1 (stereo not given) | = | 31 |
| Nc1nc(N)c(C(C[N+](=O)[O-])c2csc3ccccc23)c(N)n1 (stereo not given) | = | 139 |
| Nc1nc(N)c(C(C[N+](=O)[O-])c2ccc3c(c2)CCO3)c(N)n1 (stereo not given) | = | 11 |
| Nc1nc(N)c(C(C[N+](=O)[O-])c2ccccc2OCc2ccc(Cl)c(Cl)c2)c(N)n1 (stereo not given) | = | 83 |
| Nc1nc(N)c(C(C[N+](=O)[O-])c2cccs2)c(N)n1 (stereo not given) | = | 15 |
| COc1cc(C(C[N+](=O)[O-])c2c(N)nc(N)nc2N)ccc1O (stereo not given) | = | 23 |
| Cc1ccc(C(C[N+](=O)[O-])c2c(N)nc(N)nc2N)s1 (stereo not given) | = | 42 |
| Nc1nc(N)c(C(C[N+](=O)[O-])c2ccc3c(c2)OCCO3)c(N)n1 (stereo not given) | = | 11 |
